All figures here come from ChEMBL document CHEMBL1201862.

# System: OVCAR-5
# methodSummary: NCI tumour cell line growth inhibition, 48 h
The source made the active and inactive calls. Rule as the data show it: active = GI50 up to about 1.1 µM and inactive = higher.
Answer with one of the outcomes active, inactive

Check out these entries, answers already filled in.
[ask] Assay result, entry Clc1cccc(C2SCc3nc4ccccc4n32)c1Cl (stereo unspecified) — outcome?
[reply] inactive

[ask] Assay result, entry C[C@H](CCC1=NCCN1)[C@H]1CC[C@H]2[C@@H]3CC[C@@H]4C[C@H](O)CC[C@]4(C)[C@H]3C[C@H](O)[C@]12C — outcome?
[reply] inactive

[ask] Assay result, entry NC(=S)NNCC(=O)CC(O)(C(F)(F)F)C(F)(F)Cl (stereo unspecified) — outcome?
[reply] inactive

Next:
[ask] Assay result, entry NNC(=S)N/N=C(\CC1OC(=O)c2ccccc21)c1ccccc1O (stereo unspecified) — outcome?
[reply] inactive
